Numbers sourced from paper PMC11720353.

# Procedure text: in vivo
# Settings: male, Sprague-Dawley, rat, po, 50 mg/kg, Cmax, bloodstream

# Compound, Cmax / ng/mL
data = [
    ("C=C1CC/C=C(\\C)CC[C@@H]2[C@@H]1CC2(C)C [BCA, β-Caryophyllene]", 22500),
]

---

# Procedure text: in vivo
# Settings: male, Sprague-Dawley, rat, po, 50 mg/kg, Cmax, cerebrospinal fluid (CSF)
Parameter: Cmax (µg/mL)

# Compound smiles, Observed measurement
data = [
    ("C=C1CC/C=C(\\C)CC[C@@H]2[C@@H]1CC2(C)C", 0.42),
]

---

# Procedure text: in vivo
# Settings: male, Sprague-Dawley, rat, iv, 2 mg/kg

# Compound smiles, Unit info, half-life
rows = [
    ("C=C1CC/C=C(\\C)CC[C@@H]2[C@@H]1CC2(C)C", "min", 49.7),
]
